Catalogue of binders with associated pKd
- SYSTEM TESTED: T1, recombinant human activated Factor VII (FVIIa) (human, UniProt P08709 61-212; P08709 213-466, ten glutamate residues of the Gla domain may be gamma-carboxylated)
- T1 construct: chains tethered by a disulfide bond; also called Factor VIIa; rFVIIa
- T1 sequence 1: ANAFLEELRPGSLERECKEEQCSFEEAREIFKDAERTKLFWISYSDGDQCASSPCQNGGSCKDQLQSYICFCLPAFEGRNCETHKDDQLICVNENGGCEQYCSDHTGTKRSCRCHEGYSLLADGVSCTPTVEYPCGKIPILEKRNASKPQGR
- T1 sequence 2: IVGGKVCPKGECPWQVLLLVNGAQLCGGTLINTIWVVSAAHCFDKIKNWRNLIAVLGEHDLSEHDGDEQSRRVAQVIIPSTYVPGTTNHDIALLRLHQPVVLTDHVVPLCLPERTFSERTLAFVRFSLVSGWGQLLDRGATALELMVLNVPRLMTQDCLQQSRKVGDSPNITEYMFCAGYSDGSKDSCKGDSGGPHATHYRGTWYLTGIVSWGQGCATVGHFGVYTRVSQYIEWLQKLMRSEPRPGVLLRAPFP
- EXPERIMENT: BLI (Fortebio)
The value called pKd is obtained by taking minus log10 of the concentration in mol/L.

Use these answered entries as a reference point.
# BINDER, pKd
rows = [
    ("VH SEQ ID NO 634 / VL SEQ ID NO 334 (antibody, IgG4, V domains shown, humanized 11F2; IgG4 S228P/kappa) VH: QVQLQESGPGLVKPSQTLSLTCTVSGYSISSDSAWSWIRQPPGKGLEWIGYIQYSGSTNYNPSLKSRVTISRDTSKNQFSLKLSSVTAADTAVYYCARSVNYYGNSFAVGYWGQGTLVTVSS VL: EIVLTQSPATLSLSPGERATLSCRASQGISDYLHWYQQKPGQAPRLLIKYASQPATGIPARFSGSGSGTDFTLTISSLEPEDFAVYYCQNGHSFPLTFGQGTKLEIK", 9.00),
    ("VH SEQ ID NO 650 / VL SEQ ID NO 478 (antibody, IgG4, V domains shown, humanized 11F2; IgG4 S228P/kappa) VH: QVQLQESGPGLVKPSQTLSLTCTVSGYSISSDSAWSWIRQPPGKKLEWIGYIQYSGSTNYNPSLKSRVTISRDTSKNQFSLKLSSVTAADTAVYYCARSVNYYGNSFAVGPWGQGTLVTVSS VL: EIVLTQSPATLSLSPGERATLSCRASQGVSDYLHWYQQKPGQAPRLLIKYASQPATGIPARFSGSGSGTDFTLTISSLEPEDFAVYYCQQGHSFPLTFGQGTKLEIK", 8.52),
]

get_value(item= VH SEQ ID NO 546 / VL SEQ ID NO 470 (antibody, IgG4, V domains shown, humanized 11F2; IgG4 S228P/kappa) VH: QVQLQESGPGLVEPSQTLSLTCTVSGYSITSDSAWSWIRQPPGKKLEWIGYIQYSGSTNYNPSLKSRVTISRDTSKNQFSLKLSSVTAADTAVYYCARSVNYYGNSFAVGYWGQGTSVTVSS VL: EIVLTQSPATLSLSPGERATLSCRASQGVSDYLHWYQQKPGQAPRLLIKYASQPATGIPARFSGSGSGTDFTLTISSLEPEDFAVYYCQNGHSFPLTFGQGTKLEIK , readout=pKd) returns 8.92

The reported numbers originate from patent US20220064329A1.
